Reported clearance is given for each of the following compounds.
- Measurement protocol: In vivo pharmacokinetic study, intravenous
- Parameters: species or system male CD-1 mice
- Cond: male, CD-1, mouse, plasma, intravenous, 1 mg/kg; in vivo PK in mice, unit inferred; read-out: clearance
Please give a number only; it is taken to be in mL/min/kg.

| Compound | clearance / mL/min/kg |
| --- | --- |
| O=P(O)(O)CP(=O)(O)OC[C@H]1O[C@@H](n2ccc3c(-c4ccc5c(c4)CCCC5)nc(I)nc32)[C@H](O)[C@@H]1O [27H.23] | 3.1 |

For the next question, use this compound.
Could you please provide reported clearance for Cc1nc(-c2cccc3ccccc23)c2ccn([C@@H]3O[C@H](COP(=O)(O)CP(=O)(O)O)[C@@H](O)[C@H]3O)c2n1 [18E.6] ? Thanks! 0.32

====

Measured solubility at 2 h values are reported for all entries that follow.
- Measurement protocol: Kinetic solubility in PBS
- Format: physicochemical
- Cond: phosphate-buffered saline, pH 7.4, aqueous buffer, kinetic from dmso stock

| Molecule | Recorded result |
| --- | --- |
| O=P(O)(O)CP(=O)(O)OC[C@H]1O[C@@H](n2ccc3c(-c4ccco4)nc(F)nc32)[C@H](O)[C@@H]1O [14D.1] | 80 µM |
| CNc1nc(-c2ccc3ccccc3c2)c2ccn([C@@H]3O[C@H](COP(=O)(O)CP(=O)(O)O)[C@@H](O)[C@H]3O)c2n1 [22G.7] | 84 µM |
| O=P(O)(O)CP(=O)(O)OC[C@H]1O[C@@H](n2ccc3c(-c4ccc(F)c5ccccc45)ncnc32)[C@@H](F)[C@@H]1O [34A.23] | 100 µM |

// fetch solubility at 2 h given entry O=P(O)(O)CP(=O)(O)OC[C@H]1O[C@@H](n2ccc3c(-c4cccc5c4CCCC5)nc(F)nc32)[C@H](O)[C@@H]1O [14D.12] 84 µM

// fetch solubility at 2 h given entry O=P(O)(O)CP(=O)(O)OC[C@H]1O[C@@H](n2ccc3c(-c4ccnc5ccccc45)ncnc32)[C@H](O)[C@@H]1O [4A.17] > 100 µM

Dear colleague, please send me the reported solubility at 2 h for COC(=O)c1ccc2cc(-c3nc(Cl)nc4c3ccn4[C@@H]3O[C@H](COP(=O)(O)CP(=O)(O)O)[C@@H](O)[C@H]3O)ccc2c1 [7B.29] when you can. 85 µM

====

- Tested on: hERG potassium channel (Homo sapiens, UniProt Q12809)
- Sequence (Q12809 whole entry): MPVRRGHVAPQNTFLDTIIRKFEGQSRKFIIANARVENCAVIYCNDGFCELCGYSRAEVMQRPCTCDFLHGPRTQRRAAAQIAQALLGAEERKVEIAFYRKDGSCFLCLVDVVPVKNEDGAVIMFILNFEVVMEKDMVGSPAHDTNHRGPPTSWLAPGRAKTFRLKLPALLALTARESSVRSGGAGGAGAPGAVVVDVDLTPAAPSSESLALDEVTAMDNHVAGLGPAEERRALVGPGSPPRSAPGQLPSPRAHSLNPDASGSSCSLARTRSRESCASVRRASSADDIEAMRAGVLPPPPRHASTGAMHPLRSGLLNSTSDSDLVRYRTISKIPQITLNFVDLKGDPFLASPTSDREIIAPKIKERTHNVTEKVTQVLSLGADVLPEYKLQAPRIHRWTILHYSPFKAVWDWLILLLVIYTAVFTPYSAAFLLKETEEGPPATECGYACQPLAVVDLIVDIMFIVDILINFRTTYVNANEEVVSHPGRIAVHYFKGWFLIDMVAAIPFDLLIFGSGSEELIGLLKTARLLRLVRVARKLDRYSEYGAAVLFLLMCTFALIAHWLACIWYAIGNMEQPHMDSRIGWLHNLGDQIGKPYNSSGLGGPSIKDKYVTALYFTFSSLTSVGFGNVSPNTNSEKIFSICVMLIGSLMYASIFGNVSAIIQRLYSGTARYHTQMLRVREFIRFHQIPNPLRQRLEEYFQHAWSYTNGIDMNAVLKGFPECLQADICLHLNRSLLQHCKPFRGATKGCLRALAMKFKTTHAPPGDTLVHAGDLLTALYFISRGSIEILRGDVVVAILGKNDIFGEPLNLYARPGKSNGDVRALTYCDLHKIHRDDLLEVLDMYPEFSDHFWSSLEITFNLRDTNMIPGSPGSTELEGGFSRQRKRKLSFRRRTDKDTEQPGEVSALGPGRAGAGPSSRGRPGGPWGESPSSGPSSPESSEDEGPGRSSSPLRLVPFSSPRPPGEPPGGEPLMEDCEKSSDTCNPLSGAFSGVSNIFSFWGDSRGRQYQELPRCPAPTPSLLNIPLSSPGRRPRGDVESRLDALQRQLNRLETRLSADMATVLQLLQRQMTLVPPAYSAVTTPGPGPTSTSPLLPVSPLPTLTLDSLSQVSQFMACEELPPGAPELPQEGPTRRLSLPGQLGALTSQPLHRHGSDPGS
- Measurement protocol: hERG inhibition assay (thallium flux, HEK293-hERG cells)
- Type: cell-based
- Cond: 100 µM
# hERG % inhibition at 100 µM per entry
Expressed in %, but write only the number.

Here's what some known entries look like.
| Molecule | Unit name | hERG % inhibition at 100 µM |
| --- | --- | --- |
| Cc1nc(-c2cccc3ccccc23)c2ccn([C@@H]3O[C@H](COP(=O)(O)CP(=O)(O)O)[C@@H](O)[C@H]3O)c2n1 [18E.6] | % | 2 |
| O=P(O)(O)CP(=O)(O)OC[C@H]1O[C@@H](n2ccc3c(-c4cccc5c4CCCC5)nc(Cl)nc32)[C@H](O)[C@@H]1O | % | 3 |
| O=P(O)(O)CP(=O)(O)OC[C@H]1O[C@@H](n2ccc3c(-c4ccc(F)c5ccccc45)nc(Cl)nc32)[C@H](O)[C@@H]1O | % | 6 |
| O=P(O)(O)CP(=O)(O)OC[C@H]1O[C@@H](n2ccc3c(-c4ccc5ccccc5c4)ncnc32)[C@H](O)[C@@H]1O | % | 1 |
| O=P(O)(O)CP(=O)(O)OC[C@H]1O[C@@H](n2ccc3c(-c4ccc5c(c4)CCCC5)nc(Cl)nc32)[C@H](O)[C@@H]1O | % | 5 |

Give the reported hERG % inhibition at 100 µM for this molecule. O=P(O)(O)CP(=O)(O)OC[C@H]1O[C@@H](n2ccc3c(-c4cccc5ccncc45)ncnc32)[C@H](O)[C@@H]1O 6

// fetch hERG % inhibition at 100 µM given entry O=P(O)(O)CP(=O)(O)OC[C@H]1O[C@@H](n2ccc3c(-c4ccc5c(c4)CCCC5)nc(I)nc32)[C@H](O)[C@@H]1O [27H.23] 7
